Every entry's value here was drawn from the supplement of paper PMC5908809.

# Test system: DERL-7 (IL-2 2.5 ng/mL);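 also: normalised to DMSO-only wells as negative and benzethonium chloride as positive control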
# procedure.summary: percent inhibition of viability; higher = more inhibition
# experimental.context: 72 h; 0.1 nM
Catalogue of percent inhibition of viability readings, one per entry.
Output spec: scalar in %, unitless text.

What measured percent inhibition of viability goes with CC(C)(C)c1cc(NC(=O)Nc2ccc(-c3cn4c(n3)sc3cc(OCCN5CCOCC5)ccc34)cc2)no1 [Quizartinib] (max concentration tested 1000 nM) ?
4.27

Subsequent entry: CC[C@H](NC(=O)[C@H](C)NC)C(=O)N1C[C@@H](O)C[C@H]1Cc1c(-c2[nH]c3cc(F)ccc3c2C[C@@H]2C[C@H](O)CN2C(=O)[C@H](CC)NC(=O)[C@H](C)NC)[nH]c2cc(F)ccc12 [Birinapant] (max concentration tested 1000 nM)
7.8

Subsequent entry: COc1cc2c(Oc3ccc4[nH]c(C)cc4c3F)ncnc2cc1OCCCN1CCCC1 [Cediranib] (max concentration tested 1000 nM)
0.36

Subsequent entry: C=CC(=O)N1CCC[C@@H](n2nc(-c3ccc(Oc4ccccc4)cc3)c3c(N)ncnc32)C1 [Ibrutinib] (max concentration tested 1000 nM)
2.78

Subsequent entry: CCc1cc2c(cc1N1CCC(N3CCOCC3)CC1)C(C)(C)c1[nH]c3cc(C#N)ccc3c1C2=O [Alectinib] (max concentration tested 1000 nM)
-1.51
